Compiled notes: published Ki values involving 5-hydroxytryptamine receptor 1A (Rattus norvegicus, UniProt P19327).
Use nM as the unit, but write only the number.

COMPOUND | ASSAY_RESULT
COc1cccc(C(=O)CCCCCN2CCN(c3ccc(Cl)cc3)CC2)c1 | 45
O=C(N[C@@H]1CCN(CCc2ccccc2)C1)C12CC3CC(CC(C3)C1)C2 | 0.17

// switching to the query compound
Request: Quick check: Ki of CCCN(CCCCc1ccc2c(c1)OCO2)CCOc1cc(F)cc2c1OCCC2=O ?
Response: 69

* * *

Literature roundup of 5-hydroxytryptamine receptor 1A (Rattus norvegicus, UniProt P19327) data, read-out pKi.
The read-out pKi is expressed as -log10 of concentration in moles per litre.

Recorded pKi, per entry:
COMPOUND | MEASUREMENT_LABEL | ASSAY_RESULT
CCCN(CCCCN1C(=O)c2ccccc2C1=O)C1COc2cccc(OC)c2C1 (stereo not given) | pKi | 8.60
CN1CCc2cc(O)cc3c2[C@H]1Cc1cccc(OCCO)c1-3 | pKi | 6.54
Cc1cc(=O)oc2cc(OCCCCCN3CCC(c4noc5cc(F)ccc45)CC3)ccc12 | pKi | 5.77

Request: Provide value of pKi for this record tested with 5-hydroxytryptamine receptor 1A (Rattus norvegicus, UniProt P19327): CCc1ccc(C(=O)N(CCN2CCN(c3ccccc3OC)CC2)c2ccccn2)cc1
Response: 8.03

Request: Entry COc1ccccc1N1CCN(CCN(C(=O)c2ccc(N=[N+]=[N-])c(I)c2)c2ccccn2)CC1 , system 5-hydroxytryptamine receptor 1A (Rattus norvegicus, UniProt P19327): what pKi was measured?
Response: 7.60

Request: Form field: pKi recorded for COc1ccc(CCCCNCCOc2cc(F)cc3c2OCCC3O)cc1 (single isomer, unassigned; (+)) with 5-hydroxytryptamine receptor 1A (Rattus norvegicus, UniProt P19327) (enter value)
Response: 8.68

Request: Lab note: need pKi for CCc1ccc(OCCNCCCCN2C(=O)C3CCCN3C2=O)cc1 (stereo not given) on 5-hydroxytryptamine receptor 1A (Rattus norvegicus, UniProt P19327), anyone have it?
Response: 6.13

Request: Could you share what pKi was measured for COc1cccc2c1OCC(CNCC1CCN(c3ncccn3)CC1)O2 (stereo not given) , tested on 5-hydroxytryptamine receptor 1A (Rattus norvegicus, UniProt P19327)?
Response: 6.89

Request: // lookup pKi | system=5-hydroxytryptamine receptor 1A (Rattus norvegicus, UniProt P19327) | key= O=C1CCc2cc(CCCCN3CCN(c4cccc(Cl)c4Cl)CC3)cc3c2N1CCC3
Response: 6.71

Request: Record O=C1c2ccccc2C(=O)N1CCCCN1CCc2ccccc2C1 : what is its pKi with 5-hydroxytryptamine receptor 1A (Rattus norvegicus, UniProt P19327)?
Response: 6.45

Request: Query for 5-hydroxytryptamine receptor 1A (Rattus norvegicus, UniProt P19327): what pKi does the record show for Cl.O=C1C2C3C=CC(C4CC34)C2C(=O)N1CCCCN1CCN(c2ncccn2)CC1 (stereo not given) ?
Response: 7.42

* * *

# SUBJECT_OF_TEST: 5-hydroxytryptamine receptor 1A (Rattus norvegicus, UniProt P19327)
# Sequence (P19327 whole entry): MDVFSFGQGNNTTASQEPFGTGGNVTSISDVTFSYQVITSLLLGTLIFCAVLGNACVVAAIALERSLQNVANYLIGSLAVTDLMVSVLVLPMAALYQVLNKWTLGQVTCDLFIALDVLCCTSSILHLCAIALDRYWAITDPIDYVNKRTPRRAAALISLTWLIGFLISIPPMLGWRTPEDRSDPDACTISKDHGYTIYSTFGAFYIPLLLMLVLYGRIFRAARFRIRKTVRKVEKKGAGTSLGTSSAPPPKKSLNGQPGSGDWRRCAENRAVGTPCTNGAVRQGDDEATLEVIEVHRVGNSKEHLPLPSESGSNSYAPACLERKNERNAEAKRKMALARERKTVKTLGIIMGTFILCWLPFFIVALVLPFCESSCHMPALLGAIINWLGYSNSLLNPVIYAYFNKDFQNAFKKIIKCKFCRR
// molecules with reported log10(Ki) on 5-hydroxytryptamine receptor 1A (Rattus norvegicus, UniProt P19327), multi-publication
A difference of one corresponds to tenfold Ki; all values are log10 with Ki in nM.

Guide cases for log10(Ki), answers given:
MOLECULE | SUBJECT_OF_TEST | MEASUREMENT_LABEL | ASSAY_RESULT
FC(F)(F)c1cccc(N2CCN(CCCCN3CC4CCCCN4C3)CC2)c1 (stereo not drawn) | 5-hydroxytryptamine receptor 1A (Rattus norvegicus, UniProt P19327) | log10(Ki) | 1.18
N#CC1(CNCc2cccc(-n3cccn3)n2)CCN(C(=O)c2ccc(Cl)c(Cl)c2)CC1 | 5-hydroxytryptamine receptor 1A (Rattus norvegicus, UniProt P19327) | log10(Ki) | 0.84
Cc1[nH]c2ccccc2c1C1CCN(CCCCn2c(=O)c(-c3ccc(Cl)cc3)c3n(c2=O)CCCC3)CC1 | 5-hydroxytryptamine receptor 1A (Rattus norvegicus, UniProt P19327) | log10(Ki) | 3.18
CC1CC2(C)CC(=O)C1C1C(=O)N(OCCCN3CCN(c4ccccc4)CC3)C(=O)C12 (stereo not drawn) | 5-hydroxytryptamine receptor 1A (Rattus norvegicus, UniProt P19327) | log10(Ki) | 2.79
COC(=O)c1ccc2[nH]cc(C3=CCCN(C)C3)c2c1 | 5-hydroxytryptamine receptor 1A (Rattus norvegicus, UniProt P19327) | log10(Ki) | 2.01
COc1ccccc1N1CCN(CCCCc2ccc3c(c2)OCC(=O)N3CCN2CCC(C(=O)c3ccc(F)cc3)CC2)CC1 | 5-hydroxytryptamine receptor 1A (Rattus norvegicus, UniProt P19327) | log10(Ki) | 1.26

Request: Tell me the measured log10(Ki) of COc1ccccc1N1CCN(CCNC(=O)[C@@H]2CCCN2C(=O)C2CCCCC2)CC1 , please.
Response: 3.55

Request: Reported log10(Ki) for COc1ccccc1N1CCN(CCc2ccc(C(=O)C(=O)N3CCCCC3)n2C)CC1.O=C(O)CCC(=O)O : what is it?
Response: 1.40

Request: Name the recorded log10(Ki) for CC(C)Oc1ccccc1OCCNCc1cccc(C2=CCCCC2)c1 .
Response: 1.09

Request: // lookup log10(Ki) for Cl.O=C1C2CCCN2C(=O)CN1CCCCN1CCN(c2cccc(C(F)(F)F)c2)CC1 (stereo not drawn)
Response: 0.56

Request: Consider the molecule shown here: Cc1cc(=O)oc2cc(OCCCN3CCN(c4ccccc4)CC3)ccc12 What is its recorded log10(Ki)?
Response: 0.74

Request: Please give the measured log10(Ki) for this molecule: COc1ccccc1N1CCN(CCCOc2ccc3c4c(c(=O)oc3c2)CCC4)CC1
Response: 2.81

Request: Param item = COc1ccc(CCCCNCCOc2cc(OC)cc3c2OCCC3)cc1 ; retrieve measured log10(Ki).
Response: 0.49

Request: Which value of log10(Ki) has been reported for O=C1CCc2cc(C(O)CCN3CCC(c4noc5cc(F)ccc45)CC3)cc3c2N1CC3 (stereo not drawn) in the records?
Response: 1.47

Request: Which log10(Ki) reading was recorded for the molecule COc1ccc2[nH]cc(C3=CCN(CCN4C(=O)CC(c5c[nH]c6ccccc56)C4=O)CC3)c2c1 (racemic) ?
Response: 3.24

Request: Would you kindly share the measured log10(Ki) for O=C1/C(=C\c2ccccc2)c2ccccc2N1CCCN1CCN(c2cccc(Cl)c2)CC1 ?
Response: 1.73
